These measurements were taken from patent US20220112288A1.

target: T1, human CD4 on cells (SKW3 cells; human PBMCs) (human, UniProt P01730 26-458); test: FACS confirmation, supernatant on SKW3 cells; background gMFI 2500
T1 construct: whole, on cells; SKW3 CD4 knockout cells served as the negative cell line in the primary screen; also called hCD4; huCD4
Property: gMFI on SKW3 WT, anti-hu Kappa FITC; scope: individual binders
// note: answer is a bare numeric in gMFI

{"columns": ["binder", "experimental.readout", "unit.string", "value.measured"],
 "data": [
  ["75110_06K03A (antibody, V domains shown, Tested as non-clonal AlivaMab Mouse Kappa hybridoma supernatant (detected with anti-mouse Fc gamma and anti-human kappa)) VH: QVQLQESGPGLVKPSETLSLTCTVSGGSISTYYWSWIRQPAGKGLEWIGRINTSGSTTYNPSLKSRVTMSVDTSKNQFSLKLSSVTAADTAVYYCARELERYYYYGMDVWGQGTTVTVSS VL: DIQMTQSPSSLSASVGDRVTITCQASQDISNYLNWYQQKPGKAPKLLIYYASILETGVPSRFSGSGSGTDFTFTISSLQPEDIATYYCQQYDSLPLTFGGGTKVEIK", "gMFI on SKW3 WT, anti-hu Kappa FITC", "gMFI", 8640]
]}

Next item in the queue.
Q) Item 75110_07J02A (antibody, V domains shown, Tested as non-clonal AlivaMab Mouse Kappa hybridoma supernatant (detected with anti-mouse Fc gamma and anti-human kappa)) VH: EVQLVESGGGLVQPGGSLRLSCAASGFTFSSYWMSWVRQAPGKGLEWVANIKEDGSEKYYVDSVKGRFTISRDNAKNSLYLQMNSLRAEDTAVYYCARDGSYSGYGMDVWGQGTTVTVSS VL: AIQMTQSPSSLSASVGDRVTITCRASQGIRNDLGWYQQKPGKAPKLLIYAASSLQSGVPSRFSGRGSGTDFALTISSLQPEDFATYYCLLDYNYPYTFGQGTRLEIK has what recorded gMFI on SKW3 WT, anti-hu Kappa FITC?
A) 3980
